Cited source: PubChem BioAssay (NCI)

# Tested on: CCRF-CEM leukemia
# Test: NCI tumour cell line growth inhibition, 48 h; in the data active = GI50 below about 0.43 µM; inactive = the rest
Outcome codes: active, inactive

                                   compound    subject_of_test  category
0  Cc1cc2c3c([n+](C)c4ccc(F)cc4c3c1)-c1cc(F)ccc1N2C  CCRF-CEM leukemia  inactive
1  Cc1cc(-c2nc3n(c2/C=N/N=C(N)N)CCS3)c(C)s1  CCRF-CEM leukemia  inactive
2  COc1cc(C2c3cc4c(cc3[C@@H](Nc3ccc([N+](=O)[O-])cc3)C3COC(=O)[C@H]23)OCO4)cc(OC)c1O (some centres undefined)  CCRF-CEM leukemia    active
3  O=C(NCc1ccco1)C1CCN(S(=O)(=O)c2ccc(Cl)cc2)CC1  CCRF-CEM leukemia  inactive
4  CC(C)(C)C(=O)c1c(C(F)(F)F)n([O-])c2cc(Cl)c(Cl)cc2[n+]1=O  CCRF-CEM leukemia  inactive
5  c1csc(-c2ccc(CNc3c4ccccc4nc4ccccc34)cc2)c1  CCRF-CEM leukemia  inactive
6  CC(C)c1[nH]nc2c(NCc3ccc(-c4ccccn4)cc3)nc(SCCN)nc12  CCRF-CEM leukemia    active
7  C[C@H]1COCCN1c1nc(-c2cnc(N)cc2C(F)F)nc(N2CCOCC2)n1  CCRF-CEM leukemia    active
8  CCC[n+]1cc2cc3c(cc2c2c1-c1cc4c(cc1C2)OCO4)OCO3 (tested in a mixture with another compound)  CCRF-CEM leukemia  inactive

* * *

# Tested on: HOP-92 NSCLC
# Test: NCI tumour cell line growth inhibition, 48 h
Reported GI50 is given for each of the following compounds.
Measured endpoint: GI50

                                   compound  observed
0  CCC[n+]1cc2cc3c(cc2c2c1-c1cc4c(cc1C2)OCO4)OCO3 (tested in a mixture with another compound)  0.683 µM
1  CC(C)(C)C(=O)c1c(C(F)(F)F)n([O-])c2cc(Cl)c(Cl)cc2[n+]1=O   1.47 µM
2  CN(C)CC1C(=O)O[C@H]2[C@H]1CC/C(COC(=O)NCc1ccc(Cn3c(=O)sn(CCCI)c3=O)cc1)=C\CC[C@@]1(C)O[C@@H]21 (some centres undefined)  0.786 µM
3  Cc1ccc(-c2c3c(nn2-c2ccc(S(=O)(=O)NC(=O)NC4CCCCC4)cc2)-c2ccccc2C3)cc1   2.65 µM

* * *

# Test system: UACC-62 melanoma
# Test: NCI tumour cell line growth inhibition, 48 h
Reported TGI is given for each of the following molecules.
Measured endpoint: TGI

                                    molecule   observed
 0                        C=CCc1oc(C)nc1CCCC   > 100 µM
 1  O=C1C=C(NCC(c2ccccc2)c2ccccc2)C(=O)c2ncccc21     2.9 µM
 2  O=C(N/N=C/c1cc(Cl)ccc1O)c1ccccc1Nc1ccnc(C(F)(F)F)c1    1.75 µM
 3                    O=c1[nH]c2ccc(Cl)cc2o1   > 100 µM
 4  COc1cccc(/C=C2\SC(=S)N(/C=C3\C(=O)Oc4ccccc4C3=O)C2=O)c1O   > 100 µM
 5  Cc1ccc2c(c1)C=CC1(O2)N(c2ccccc2)C(=S)OC1(C)C (stereo unspecified)   > 100 µM
 6          CN(c1ccccc1)c1nc(=[N+]2CCCC2)ss1   > 100 µM
 7  C[C@]12Cc3conc3C(O)=C1CC[C@@H]1C2CC[C@@]2(C)C1CC[C@]2(C)O (stereo partly specified)    29.2 µM
 8  O=[N+]([O-])C(C(Cl)=C(Cl)Cl)=C(n1nnc2ccccc21)n1nnc2ccccc21  > 58.2 µM
 9               CCOC(=O)/C(C#N)=C\Sc1ccccc1    42.3 µM
10  Nc1nc(Cl)c(N)c(NCC2(CO)CCC(CCc3ccccc3)C2)n1 (stereo unspecified)      26 µM

* * *

# System: TK-10 renal
# Test: NCI tumour cell line growth inhibition, 48 h
Reported TGI is given for each of the following compounds.

Compound	Subject of test	Result comparator	TGI, µM
CCn1cc(C(=O)N/N=C/c2cccs2)c(=O)c2cc(F)c(N3CCNC(C)C3)c(F)c21 (stereo not given)	TK-10 renal	=	3.25
CC(Cc1ccccc1)N(C)Cc1nc(C2CCC([N+](=O)[O-])O2)no1 (stereo not given)	TK-10 renal	=	28.4
C[C@H]1COCCN1c1nc(-c2cnc(N)cc2C(F)F)nc(N2CCOCC2)n1	TK-10 renal	=	0.815
CC(C)=CCC/C(C)=C/Cc1c(O)c(C)cc2c1[nH]c1cc(O)ccc12	TK-10 renal	>	25
CC(=O)OC1CC(OC2C(O)CC(OC3C(O)CC(OC4CCC5(C)C(CCC6C5CCC5(C)C(C7=CC(=O)OC7)CCC65O)C4)OC3C)OC2C)OC(C)C1OC1OC(CO)C(O)C(O)C1O (stereo not given)	TK-10 renal	=	0.149

* * *

Reported TGI is given for each of the following compounds.
# Test system: OVCAR-5 ovarian
# Test: NCI tumour cell line growth inhibition, 48 h

Compound	Result comparator	TGI / µM
CSCC(CO)NC(=O)/C=C/c1c(C)[nH]c(=O)[nH]c1=O (stereo not given)	>	875
[Cl][Hg][c]1ccc2ccccc2c1	=	16.5
COc1ccc(/C=C2\COc3ccc(O)c(O)c3C2=O)cc1OC	=	3.8
CC(C)[C@@H]1CC[C@@H](C)C[C@H]1OC(=O)/C=C1\C(C(=O)O[C@@H]2C[C@H](C)CC[C@H]2C(C)C)[C@H]2C=C[C@@H]1O2 (stereo not given in full)	>	100
CCOC(=O)[C@@H]1ON2O[C@@H](OC3CCCCC3c3ccccc3)C[C@H]3OC(=O)[C@@H]1C32 (stereo not given in full)	>	100

* * *

# System: HL-60(TB) leukemia
# Test: NCI tumour cell line growth inhibition, 48 h; in the data active means GI50 below about 0.43 µM; inactive means the rest
Outcome codes: active, inactive

In [3]: df
Out[3]:
                                   compound     subject_of_test  category
0  COc1ccc(/C=C2\COc3ccc(O)c(O)c3C2=O)cc1OC  HL-60(TB) leukemia  inactive
1  CC(C)(O)CCc1cccc(C(=O)c2cnn(-c3ccc(F)cc3)c2N)c1  HL-60(TB) leukemia  inactive
2  CC(C)c1[nH]nc2c(NCc3ccc(-c4ccccn4)cc3)nc(SCCN)nc12  HL-60(TB) leukemia    active
3  CNCC(=O)NC(CO)C(=O)NC(CO)C(=O)NC1C(C(N)=O)OC(n2ccc(N)nc2=O)C(O)C1O (stereo not drawn)  HL-60(TB) leukemia  inactive
4                   C(=C\c1ccncc1)/c1ccncc1  HL-60(TB) leukemia  inactive
5  C#CCOc1cccc(Nc2ncnc3cc(NC(=O)C=C)ccc23)c1  HL-60(TB) leukemia  inactive
6  CCN(CC)S(=O)(=O)c1cccc(-c2ccc3c(NC(=O)C4CC4)n[nH]c3c2)c1  HL-60(TB) leukemia  inactive
7  COC(=O)c1ccc(NC(=O)c2ccc(NC3=C(Cl)C(=O)N(Cc4ccccc4)C3=O)cc2)cc1  HL-60(TB) leukemia  inactive

* * *

Reported TGI is given for each of the following molecules.
# System: ACHN renal
# Test: NCI tumour cell line growth inhibition, 48 h
Measured endpoint: TGI

>>> print(df.to_string())
                                    molecule  observed
 0  C[C@@H](NC(=O)Cn1c(Cl)nc2ccccc21)c1ccccc1  > 100 µM
 1  COc1cccc(/C=C2\SC(=S)N(/C=C3\C(=O)Oc4ccccc4C3=O)C2=O)c1O  > 100 µM
 2  O=C(O/N=c1/ccc(=O)/c(=N\OC(=O)c2ccccc2)c1=O)c1ccccc1  > 100 µM
 3          c1cc(C2CCCCC2)ccc1-c1cnc2nonc2n1   2.39 µM
 4  CC(=O)CCc1ccc(Oc2c3c(nc4ccccc24)OCC3)cc1  > 100 µM
 5  C[C@@H](CS[As](C)C)C(=O)N1CCC[C@H]1C(=O)O    1.2 µM
 6  C=CCC(N[C@H](CO)c1ccccc1)c1ccccn1 (stereo partly specified)  > 100 µM
 7  CCO[C@@]12CCC3CC4CC[C@@](OCC)(O1)C4C32 (stereo partly specified)  > 100 µM
 8  COC(=O)C(=O)C(C(C)=O)C(=O)NCc1ccccc1 (stereo unspecified)  > 100 µM
 9  O=c1cc(-c2ccccc2)oc2cc(OCCCCCN3CCOCC3)cc(O)c12  > 100 µM
10  COc1ccc(/C=C2\COc3ccc(O)c(O)c3C2=O)cc1OC   2.75 µM

* * *

Reported TGI is given for each of the following compounds.
# Tested on: KM20L2 colon
# Test: NCI tumour cell line growth inhibition, 48 h
Measured endpoint: TGI

                                    compound  subject_of_test  observed
 0  Cc1ccc(C)c(NC(=O)C(=O)C2C(=O)N(c3ccccc3)N=C2N)c1 (stereo not drawn)     KM20L2 colon  > 100 µM
 1  COC(=O)C(=O)C(C(C)=O)C(=O)NCc1ccccc1 (stereo not drawn)     KM20L2 colon  > 100 µM
 2  CCCCCCCCC(C)CCCCCCCCC(=O)OCC(COP(=O)([O-])OCC[N+](C)(C)C)OC(=O)CCCCCCCCC(C)CCCCCCCC (stereo not drawn)     KM20L2 colon  > 100 µM
 3  O=[N+]([O-])c1ccc(C2SCc3nc4ccccc4n32)cc1 (stereo not drawn)     KM20L2 colon  > 100 µM
 4  O=C1C(Cl)=C(Cl)C(=O)N1c1cccc(C(F)(F)F)c1     KM20L2 colon  > 100 µM
 5  c1ccc2c(c1)SP1Sc3ccccc3P21 (stereo not drawn)     KM20L2 colon  > 100 µM
 6         O=C1C(Cl)=C(Cl)C(=O)N1c1ccc(F)cc1     KM20L2 colon   52.8 µM
 7  COc1ccc(NC(=O)c2oc3cc(O)ccc3c(=O)c2C)c([N+](=O)[O-])c1     KM20L2 colon  > 100 µM
 8  COC(=O)c1ccc(C(=O)OC)c2nc3cc(Cl)ccc3nc12     KM20L2 colon  > 100 µM
 9  CCC[CH2][Sn]([CH2]CCC)([O]C(=O)c1cc(F)ccc1F)[O]C(=O)c1cc(F)ccc1F     KM20L2 colon   3.37 µM
10     Nc1ccc(Cn2ccc3c4c(N)nc(N)nc4ccc32)cc1     KM20L2 colon   10.8 µM
11  CCCS(=O)c1nc(COC(=O)NC)c(COC(=O)NC)n1C (stereo not drawn)     KM20L2 colon  > 100 µM
12  COc1cccc2c(SCC(=O)Nc3ccccc3-c3ccccc3NC(=O)CSc3c4ccccc4nc4c(OC)cccc34)c3ccccc3nc12     KM20L2 colon  > 100 µM
13               CCOC(=O)/C(C#N)=C\Sc1ccccc1     KM20L2 colon   51.9 µM
14  COc1cc([C@@H]2OC(=O)C3C2C(=O)O[C@H]3c2ccc(O)c(OC)c2)ccc1O (stereo partly drawn)     KM20L2 colon  > 100 µM
15  CSCC(CO)NC(=O)/C=C/c1c(C)[nH]c(=O)[nH]c1=O (stereo not drawn)     KM20L2 colon  > 875 µM
16  O=C(Nc1ccc([N+](=O)[O-])cc1[N+](=O)[O-])C(=O)C(C(=O)c1ccc(Cl)c(Cl)c1)C1OC(=O)c2ccccc21 (stereo not drawn)     KM20L2 colon   89.7 µM
17                     O=S(O)CCCSSSCCCS(=O)O     KM20L2 colon  > 100 µM
